- testDescription: Half life in human plasma
- Type: ADME, cell-free
readoutType: half-life

[[record]]
molecule = "CC(=O)Oc1ccccc1C(=O)OC[S+](C)[O-] (stereo unspecified)"
result = "14 min"


----------
- testDescription: Half life in human blood
- Format: ADME, tissue-based
readoutType: half-life (min)

[[record]]
smilesinput = "CC(=O)Oc1ccccc1C(=O)O[C@@H]1CO[C@H]2[C@@H]1OC[C@@H]2OC(=O)c1ccccc1O"
readouttype = "half-life"
quantitativereadout = 1


----------
- testDescription: Half life in human liver microsomes at 1 uM measured up to 30 mins by LC-MS/MS analysis
- Assay type: ADME, Microsome
readoutType: half-life at 1 µM

[[record]]
molecule = "CCOP(=O)(OCC)OCC(COC(=O)c1ccccc1OC(C)=O)OP(=O)(OCC)OCC (stereo unspecified)"
readouttype = "half-life at 1 µM"
result = "28 min"


----------
- testDescription: Half life in human plasma measured after 2 days
readoutType: half-life at 48 h (min)

[[record]]
smilesinput = "CC(=O)Oc1ccccc1C(=O)Oc1ccccc1C=O"
readouttype = "half-life at 48 h"
quantitativereadout = 15


----------
- testDescription: Half life of compound in PBS buffer at pH 7.4
- Assay type: physicochemical
readoutType: half-life (min)

[[record]]
compound = "COc1ccccc1COC1(C)OC(=O)c2ccccc2O1 (stereo unspecified)"
units = "min"
quantitativereadout = 26.7

